Just for reference, patent US20090156582A1 is where these values come from.

testTarget: recombinant GSK3β enzyme (human GSK3β) (Homo sapiens)
Construct: FLAG (N)
Sequence (P49841 whole entry): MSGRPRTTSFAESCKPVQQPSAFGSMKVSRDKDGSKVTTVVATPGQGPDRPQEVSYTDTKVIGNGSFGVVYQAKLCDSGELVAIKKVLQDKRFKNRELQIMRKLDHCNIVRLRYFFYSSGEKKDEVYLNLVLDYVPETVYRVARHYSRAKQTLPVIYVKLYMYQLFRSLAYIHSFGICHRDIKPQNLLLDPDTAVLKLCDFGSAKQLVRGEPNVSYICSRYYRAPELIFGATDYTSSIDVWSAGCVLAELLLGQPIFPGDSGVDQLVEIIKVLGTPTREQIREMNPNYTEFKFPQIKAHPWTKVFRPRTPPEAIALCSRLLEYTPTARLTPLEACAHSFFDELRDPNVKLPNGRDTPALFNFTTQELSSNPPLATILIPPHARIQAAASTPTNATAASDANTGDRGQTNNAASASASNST
testDetails: Measurement of GSK3β inhibitory activity
recordedConditions: glycogen synthase peptide substrate, Kinase Glo luminescence, read-out: IC50 (concentration of test compound needed for 50% inhibition of luminescent intensity), GSK3β inhibitory activity
quantity: IC50

| compound | quantity | recordedMeasurement |
| --- | --- | --- |
| CCC(CC)C(=O)Nc1c[nH]nc1C(=O)NC1CCCC1 [Example 368] | IC50 | < 100 nM |

For every listed record, write down its IC50.
1. O=C(Nc1c[nH]nc1C(=O)NCc1ccccc1)c1ccc(F)cc1F [Example 113]
2. CNC(=O)c1n[nH]cc1NC(=O)COc1ccccc1 [compound 004]
3. CCOCC(=O)Nc1c[nH]nc1C(=O)Nc1ccccc1 [compound 085]
4. O=C(CCc1ccccc1)Nc1c[nH]nc1C(=O)NCCc1ccccc1 [Example 128]
5. O=C(Nc1c[nH]nc1C(=O)NCc1ccco1)c1ccc(Oc2ccccc2)cc1 [compound 157]
6. O=C(Cc1c[nH]c2ccccc12)Nc1c[nH]nc1C(=O)NC1CCCC1 [compound 069]

1. < 100 nM
2. < 100 nM
3. < 100 nM
4. < 100 nM
5. 140 nM
6. < 100 nM
